Origin of the recorded values: patent US20230078764A1

Target: human SCD1 (Homo sapiens)
Construct: expressed in transfected cells; host or cells: yeast strain with OLE1 deleted, plasmid-borne human SCD1 (selected in SD-Ura)
Sequence (O00767 1-359): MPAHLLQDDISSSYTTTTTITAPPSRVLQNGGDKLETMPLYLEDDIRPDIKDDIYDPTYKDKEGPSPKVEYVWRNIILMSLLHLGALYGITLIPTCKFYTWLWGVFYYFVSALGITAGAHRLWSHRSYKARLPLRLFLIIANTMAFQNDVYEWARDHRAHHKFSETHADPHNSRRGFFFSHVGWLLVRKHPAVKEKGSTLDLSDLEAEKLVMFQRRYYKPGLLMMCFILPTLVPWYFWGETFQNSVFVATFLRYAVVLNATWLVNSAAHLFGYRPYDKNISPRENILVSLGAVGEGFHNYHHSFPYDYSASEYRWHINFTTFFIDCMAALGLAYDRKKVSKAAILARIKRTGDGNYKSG
Experiment: Growth inhibition of yeast strain expressing human SCD1 as sole desaturase (OLE1 deleted), OD600 readout
Type: cell-based
Details: yeast strain expressing human SCD1 as sole desaturase; growth (OD600) after 40 h at 30° C.; read-out: SCD1 IC50
measurement_name: log10 IC50 (log10 of the value in µM)
Please keep in mind that the values are log10 of IC50 expressed in µM.

Requested read-out: log10 IC50. Entry: CN1N=C(C(=O)Nc2ccc(COc3cccc(Cl)c3)cn2)CCC1=O [Compound 261]
0.15

Query: log10 IC50; subject: CC(C)N1N=C(C(=O)Nc2ncc(Cc3cccc(Cl)c3)s2)CCC1=O [Compound 222]
0.87

Given the compound Cn1nc(C(=O)Nc2ccc(CCOc3cccc(F)c3)cn2)ccc1=O [Compound 360] , what is its reported log10 IC50?
1.51

# lookup: log10 IC50 of N#Cc1cc(C(=O)Nc2ccc(Cc3cc(F)cc(F)c3)cn2)cnn1 [Compound 662]
-0.52

Entry CN1N=C(C(=O)Nc2ccc(COc3ccc(F)c(F)c3)cn2)CCC1=O [Compound 598] : reported log10 IC50 = ?
1.59

Item under review: CCn1nc(C(=O)Nc2ccc(Cc3cccc(Cl)c3)cn2)ccc1=O [Compound 67] . Reported log10 IC50?
-0.36

I'd like to know its log10 IC50. The compound in question is Cn1nc(C(=O)Nc2ccc(Cc3cc(F)cc(F)c3)cn2)ccc1=O [Example 37]
1.01

Could you share which log10 IC50 value was measured for Cn1ccc(C(=O)Nc2ccc(Cc3cccc(Cl)c3)cn2)n1 [Compound 91] ?
-2.00

Give its log10 IC50 value. Item: Cn1nc(C(=O)Nc2nc(C#N)c(Cc3cccc(F)c3)s2)ccc1=O [Compound 233]
0.21

Fill in: log10 IC50 of CN1N=C(C(=O)Nc2nc(Cl)c(Cc3cccc(F)c3)s2)CCC1=O [Compound 218] is ___
0.44

---

target: human SCD1 (Homo sapiens, UniProt O00767); construct: expressed in transfected cells; host or cells: yeast strain with OLE1 deleted, plasmid-borne human SCD1 (selected in SD-Ura); experiment: Growth inhibition of yeast strain expressing human SCD1 as sole desaturase (OLE1 deleted), OD600 readout; assay type: cell-based; conditions: yeast strain expressing human SCD1 as sole desaturase; growth (OD600) after 40 h at 30° C.; read-out: SCD1 IC50
measurement_name: log10 IC50 (log10 of the value in µM)
Heads up: the numbers are on a log10 scale; they represent IC50 in µM.

Give the reported log10 IC50 for N#Cc1cnc(C(=O)Nc2ccc(Cc3cc(F)cc(Cl)c3)cn2)cn1 [Compound 661] (system: human SCD1 (Homo sapiens, UniProt O00767)).
-0.74

Record lookup: for human SCD1 (Homo sapiens, UniProt O00767), what log10 IC50 belongs to Cn1nc(C(=O)Nc2ccc(Cc3cccc(C(F)F)c3)cn2)ccc1=O [Compound 561] ?
0.83

Hi! What's the reported log10 IC50 for Cn1cc(C(=O)Nc2ccc(Cc3cc(F)cc(F)c3)cn2)cn1 [Compound 315] on human SCD1 (Homo sapiens, UniProt O00767)?
-2.00

State its log10 IC50 on human SCD1 (Homo sapiens, UniProt O00767): CCn1ccc(C(=O)Nc2ccc(Cc3cccc(Cl)c3)cn2)n1 [Compound 100]
0.24

Request body: readout log10 IC50, system human SCD1 (Homo sapiens, UniProt O00767), query O=C(Nc1ccc(Cc2cccc(Cl)c2)cn1)c1cncc(CO)c1 [Compound 483] . Return the value.
-1.12

Record lookup: for human SCD1 (Homo sapiens, UniProt O00767), what log10 IC50 belongs to Cn1cc(C(=O)Nc2ccc(Cc3cc(C(F)(F)F)ccn3)cn2)ccc1=O [Compound 279] ?
1.33

I'm curious: which log10 IC50 was measured for O=C(Nc1ncc(Cc2cccc(Cl)c2)s1)c1ccc(=O)n(C2COC2)n1 [Compound 225] tested on human SCD1 (Homo sapiens, UniProt O00767)?
0.32

Query the reported log10 IC50 for human SCD1 (Homo sapiens, UniProt O00767); item: CC(O)c1ccc(C(=O)Nc2ccc(Cc3ccc(F)c(F)c3)cn2)nn1 (stereo not drawn) [Compound 530]
-0.80
